system: Es-2; experiment: Primary qHTS to identify gynecologic anti-cancer compounds using libraries of approved drugs and bioactive compounds (AID 1345084); settings: Gynecologic cancer cell panel viability, ATPlite luminescence, 48 h; series mostly up to 57.5 µM; also: nearly all actives have a fitted effect of over 55% in size
Inconclusive results are not listed. Active and inactive are the calls of the source. Calls follow the shape of the dose curve; as a rule, active = well fitted cell-killing curve with a large enough effect; inconclusive = small, poorly fitted or top-dose-only effect, or effect the other way; inactive = flat fitted curve, though single readings scatter.
The reply should name one outcome from true (active), false (inactive)

Task item: Identify the outcome logged in this assay for the compound shown: CC(=O)CC(c1ccccc1)c1c(O)c2ccccc2oc1=O (stereo unspecified)
Reply: false

Task item: Any idea what this test logged for O=c1cc(O)c(Cl)c[nH]1 ?
Reply: false

Task item: Which result was noted for this compound in the test: CCOC(=O)c1ccc(C#Cc2ccc3c(c2)C(C)(C)CCS3)nc1
Reply: false

Task item: Outcome? CCc1cc(C(N)=S)ccn1
Reply: false

Task item: Hi team, can someone confirm the assay call for CC(C)(C)NC(=O)[C@H]1CC[C@H]2[C@@H]3CC[C@H]4NC(=O)C=C[C@]4(C)[C@H]3CC[C@]12C ?
Reply: false

Task item: Per the records of this test, what outcome belongs to Cc1nnc(C(=O)NC(C)(C)c2nc(C(=O)NCc3ccc(F)cc3)c(O)c(=O)n2C)o1 ?
Reply: false

Task item: Record lookup: outcome of this test for CCOCC(O)COc1ccc(NC(=O)CC[S+](C)C)cc1 (stereo unspecified) ?
Reply: false

Task item: Would you mind telling me which call this test gave Oc1c(Cl)cc(Cl)c2cccnc12 ?
Reply: true

Task item: Entry CC(N)C12CC3CC(CC(C3)C1)C2 (stereo unspecified) : call = ?
Reply: false

Task item: How did this test come out for CC(C)OC(=O)C(C(=O)OC(C)C)=C1SC=CS1 ?
Reply: false

Task item: Test call, this compound: CC[C@H](C)C(=O)O[C@H]1C[C@@H](C)C=C2C=C[C@H](C)[C@H](CC[C@@H]3C[C@@H](O)CC(=O)O3)[C@H]21
Reply: false

====

assay: qHTS drug screen for cell cycle checkpoint inhibitors in PARPi-resistant BRCA-mutant ovarian cancer cell lines. (AID 1963452); conditions: PEO1/OlaR viability, CellTiter-Glo luminescence, 96 h; measured here: PEO4 Z-AUC; stronger effect = lower value
Please assign condition not met whenever Z-AUC is at or above 0.9, and condition met whenever it is below.

Task item: Is the reported Z-AUC for CC(C)OC(=O)C(C(=O)OC(C)C)=C1SC=CS1 strictly below 0.9?
Reply: condition not met

Task item: Decide: Z-AUC of CCOCC(O)COc1ccc(NC(=O)CC[S+](C)C)cc1 (stereo unspecified) strictly below 0.9?
Reply: condition not met

Task item: Given COc1cc([C@@H]2c3cc4c(cc3[C@H](O)[C@H]3COC(=O)[C@H]23)OCO4)cc(OC)c1OC , is recorded Z-AUC strictly lower than 0.9?
Reply: condition met

Task item: Record CC(C)NCC(O)c1ccc(NS(C)(=O)=O)cc1 (stereo unspecified) : is its Z-AUC strictly below 0.9?
Reply: condition met

Task item: Does this compound meet the criterion Z-AUC < 0.9? NCCCC(O)(P(=O)(O)O)P(=O)(O)O
Reply: condition met

====

test: qHTS profiling of the MIPE4 collection as inhibitors of Plasmodium falciparum (3D7) proliferation (AID 743344);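 also: scaled between DMSO vehicle wells and 0.29 µM artemisinin as full inhibition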; details: P. falciparum 3D7 in erythrocytes, SYBR Green DNA fluorescence, 72 h; at 28.5 µM (top of the series) unless noted
Quick rule: parasite growth, % of DMSO control of at least 10% means satisfied, below that means not satisfied.

Task item: Exam item: decide whether the reported parasite growth, % of DMSO control for Cc1nnc(C(=O)NC(C)(C)c2nc(C(=O)NCc3ccc(F)cc3)c(O)c(=O)n2C)o1 is at least 10%.
Reply: satisfied

Task item: hey, is parasite growth, % of DMSO control for this one >= 10%? N[C@@H](Cc1ccc(O)c(O)c1)C(=O)O
Reply: satisfied

Task item: // inclusive: parasite growth, % of DMSO control at least 10%? input: O=C(O)c1cccnc1
Reply: satisfied

Task item: Form field: parasite growth, % of DMSO control at least 10%? Entry: CCN(CC)CC#CCOC(=O)C(O)(c1ccccc1)C1CCCCC1 (stereo not given)
Reply: satisfied

Task item: Can C[C@@H]1C[C@H]2[C@@H]3CCC4=CC(=O)C=C[C@]4(C)[C@@]3(Cl)[C@@H](O)C[C@]2(C)[C@@]1(OC(=O)c1ccco1)C(=O)CCl be said to have parasite growth, % of DMSO control at or above 10%?
Reply: not satisfied

====

assay: Quantitative High-Throughput drug screen in 47 multiple myeloma cell lines against the NCATS MIPE library collection: ARD_JJKsccE7 cell viability assay (AID 1918929;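 as to viability: 100% = DMSO-only wells and 0% = media-only wells without cells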); conditions: ARD myeloma cell line viability, CellTiter-Glo, 48 h; series mostly up to 45.8 µM
Inconclusive results are not listed. Calls of active or inactive are those of the source. Calls follow the shape of the dose curve; as a rule, active = well fitted cell-killing curve with a large enough effect; inconclusive = small, poorly fitted or top-dose-only effect, or effect the other way; inactive = no such curve, though single readings can be large or run the other way.
Answer with one of the outcomes active, inactive

Task item: Record request — test call for Cc1cccc(N(C)C(=S)Oc2ccc3ccccc3c2)c1
Reply: active

Task item: Fill in: this test's call for Cc1cc(NS(=O)(=O)c2ccc(N)cc2)no1 is ___
Reply: inactive

Task item: Could you please tell me the result logged for COc1c(N2CCNC(C)C2)c(F)cc2c(=O)c(C(=O)O)cn(C3CC3)c12 (stereo unspecified) in this assay?
Reply: inactive

Task item: Hey, what did the test say about COc1cc([C@@H]2c3cc4c(cc3[C@H](O)[C@H]3COC(=O)[C@H]23)OCO4)cc(OC)c1OC ?
Reply: inactive

Task item: Assay result, entry CNS(=O)(=O)CCc1ccc2[nH]cc(C3CCN(C)CC3)c2c1 — outcome?
Reply: active

Task item: So what was the verdict on CC(C)Cn1cnc2c(N)nc3ccccc3c21 in this test?
Reply: active

Task item: What outcome does the record of this test show for CCOC(=O)[C@H](CCc1ccccc1)N[C@H]1CCc2ccccc2N(CC(=O)O)C1=O ?
Reply: active

Task item: Hey, what did the test say about CNCC[C@H](Oc1cccc2ccccc12)c1cccs1 ?
Reply: active

Task item: Outcome logged for CN(C)c1ccc(C(=C2C=CC(=[N+](C)C)C=C2)c2ccc(N(C)C)cc2)cc1 in this assay:
Reply: active

Task item: What did this assay record as the result for CCN(CC)CCn1c(=O)c(Cc2ccc(OC)cc2)nc2ccccc21 ?
Reply: inactive

Task item: Field: outcome | Entry: COc1ncnc(NS(=O)(=O)c2ccc(N)cc2)c1OC
Reply: inactive

====

experiment: High-throughput drug toxicity screening in the BPDCN cell line Gen2.2 (AID 1224824); settings: Gen2.2 BPDCN cells; at 45.8 µM (top of the series) unless noted;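 also: cells exposed to compounds for 48 h before reading; 100% = DMSO and 0% = bortezomib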
quantityName: cell viability, % of control (lower = more cytotoxic) (%)
Reply with just the number (in %).

Task item: Suppose we examine the molecule CN(C)c1ccc(C(=C2C=CC(=[N+](C)C)C=C2)c2ccc(N(C)C)cc2)cc1 ; what cell viability, % of control (lower = more cytotoxic) value has been reported?
Reply: 1.19

Task item: Could you share which cell viability, % of control (lower = more cytotoxic) value was measured for CC1CC2C3CCC4=CC(=O)C=C[C@]4(C)[C@@]3(F)[C@@H](O)C[C@]2(C)[C@@]1(O)C(=O)CO (stereo partly drawn) ?
Reply: 115

Task item: Which value of cell viability, % of control (lower = more cytotoxic) has been reported for CC1(C)[C@H](C(=O)O)N2C(=O)C[C@H]2S1(=O)=O in the records?
Reply: 240

Task item: Field request: cell viability, % of control (lower = more cytotoxic) | item: NNC(=O)c1ccncc1
Reply: 88.1

Task item: Quick one: cell viability, % of control (lower = more cytotoxic) of CCC(C)(C)c1ccc(CC(C)CN2C[C@@H](C)O[C@@H](C)C2)cc1 (stereo partly drawn) ?
Reply: 129

Task item: I am curious: what cell viability, % of control (lower = more cytotoxic) value has been reported for CCOC(=O)c1ccc(OC(=O)CCCCCN=C(N)N)cc1 ?
Reply: 186

Task item: # query: cell viability, % of control (lower = more cytotoxic) of entry Cc1nnc(NS(=O)(=O)c2ccc(N)cc2)s1
Reply: 114

Task item: Entry C[C@@H](NCCCc1cccc(C(F)(F)F)c1)c1cccc2ccccc12 has what cell viability, % of control (lower = more cytotoxic)?
Reply: 264

Task item: Item Cc1ccnc2c1NC(=O)c1cccnc1N2C1CC1 has what recorded cell viability, % of control (lower = more cytotoxic)?
Reply: 1.63

Task item: Any idea what cell viability, % of control (lower = more cytotoxic) was measured for CC(=O)CC(c1ccccc1)c1c(O)c2ccccc2oc1=O (stereo not drawn) ?
Reply: 66.7

Task item: Consider the molecule N[C@@H](Cc1ccc(O)c(O)c1)C(=O)O and give its measured cell viability, % of control (lower = more cytotoxic).
Reply: 94.2

Task item: Query (molecule): CN1CCN(c2c(F)cc3c(=O)c(C(=O)O)cn4c3c2OCN4C)CC1 ; field requested: cell viability, % of control (lower = more cytotoxic)
Reply: 170

Task item: Name the reported cell viability, % of control (lower = more cytotoxic) value associated with the molecule O=S(=O)(c1cccc2cnccc12)N1CCCNCC1
Reply: 21.4

Task item: Request the reported cell viability, % of control (lower = more cytotoxic) associated with CN(Cc1cc(Br)cc(Br)c1N)C1CCCCC1
Reply: 226

Task item: Name the reported cell viability, % of control (lower = more cytotoxic) value associated with the molecule Cc1onc(-c2ccccc2Cl)c1C(=O)N[C@@H]1C(=O)N2[C@@H]1SC(C)(C)[C@@H]2C(=O)O
Reply: 168

Task item: Return reported cell viability, % of control (lower = more cytotoxic); argument: Cc1ccc(S(=O)(=O)N[C@@H](Cc2ccccc2)C(=O)CCl)cc1
Reply: 4.27

Task item: Entry COc1cc2nc(N3CCCN(C)CC3)nc(NC3CCN(Cc4ccccc4)CC3)c2cc1OC : reported cell viability, % of control (lower = more cytotoxic) = ?
Reply: 9.38

Task item: # lookup: cell viability, % of control (lower = more cytotoxic) of COc1cccc(N(C)C(=S)Oc2ccc3c(c2)CCCC3)n1
Reply: 245

Task item: Recorded cell viability, % of control (lower = more cytotoxic) for CN(C)CCc1c[nH]c2ccc(CS(=O)(=O)N3CCCC3)cc12 , please?
Reply: 25

Task item: Requested read-out: cell viability, % of control (lower = more cytotoxic). Entry: Cc1cccc(Nc2ccncc2S(=O)(=O)NC(=O)NC(C)C)c1
Reply: 90.1

Task item: // returns reported cell viability, % of control (lower = more cytotoxic) for input OCc1ccc(-c2nn(Cc3ccccc3)c3ccccc23)o1
Reply: 199

Task item: Which measured cell viability, % of control (lower = more cytotoxic) value corresponds to CC(C(=O)O)c1ccc2c(c1)CC(=O)c1ccccc1S2 (stereo not drawn) ?
Reply: 113
